Where do the numbers come from? From ChEMBL document CHEMBL3046296.

- ASSAY_DETAILS: Octanol-water partition co-efficient, log P of the compound in water at 25 degC
- Type: physicochemical
MEASUREMENT_TYPE: logP
Format: numeric value only, no unit, no commentary.

Return value of logP for input CCC1(CC2(c3cccc(Cl)c3)CO2)C(=O)c2ccccc2C1=O (stereo not drawn) [(RS)-INDANOFAN] , no commentary.
3.59
